UniProt P08311 data, read-out IC50
Sequence (P08311 whole entry): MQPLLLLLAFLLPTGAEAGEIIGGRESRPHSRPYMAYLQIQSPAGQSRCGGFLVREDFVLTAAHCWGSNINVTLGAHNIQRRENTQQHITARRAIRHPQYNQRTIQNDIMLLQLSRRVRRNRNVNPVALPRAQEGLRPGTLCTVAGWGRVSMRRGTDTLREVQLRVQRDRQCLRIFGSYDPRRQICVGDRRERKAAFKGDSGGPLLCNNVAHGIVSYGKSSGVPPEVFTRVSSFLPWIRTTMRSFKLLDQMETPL

>  <COMPOUND>
Cc1cccc2scc(Cn3c(SCCCC(=O)O)nc4ccccc43)c12

>  <STUDY_SYSTEM>
UniProt P08311

>  <IC50>
0.052 µM

$$$$
>  <COMPOUND>
CCCC(CC(=O)O)n1c(=O)n(Cc2cccc3c2CC(=O)N3)c2ccccc21 (stereo unspecified)

>  <STUDY_SYSTEM>
UniProt P08311

>  <IC50>
> 10 µM

$$$$
>  <COMPOUND>
O=C(O)CCn1c(=O)n(Cc2cc(Cl)cc3c2CC(=O)N3)c2ccccc21

>  <STUDY_SYSTEM>
UniProt P08311

>  <IC50>
> 10 µM

$$$$
>  <COMPOUND>
O=C(O)CCn1c(=O)n(Cc2cc(Br)cc3c2CC(=O)N3)c2ccccc21

>  <STUDY_SYSTEM>
UniProt P08311

>  <IC50>
> 10 µM

$$$$
>  <COMPOUND>
CCCC(CC(=O)O)n1c(=O)n(Cc2cc(Cl)cc3c2CC(=O)N3)c2ccccc21 (stereo unspecified)

>  <STUDY_SYSTEM>
UniProt P08311

>  <IC50>
> 10 µM

$$$$
>  <COMPOUND>
CCCC(Cn1c(=O)n(Cc2cc(Br)cc3[nH]c(=O)sc23)c2ccccc21)C(=O)O (stereo unspecified)

>  <STUDY_SYSTEM>
UniProt P08311

>  <IC50>
> 10 µM

$$$$

Values compiled from ChEMBL document CHEMBL2380206.
